- TESTED_ON: MAP kinase-activated protein kinase 5 (Homo sapiens)
- Sequence (whole entry): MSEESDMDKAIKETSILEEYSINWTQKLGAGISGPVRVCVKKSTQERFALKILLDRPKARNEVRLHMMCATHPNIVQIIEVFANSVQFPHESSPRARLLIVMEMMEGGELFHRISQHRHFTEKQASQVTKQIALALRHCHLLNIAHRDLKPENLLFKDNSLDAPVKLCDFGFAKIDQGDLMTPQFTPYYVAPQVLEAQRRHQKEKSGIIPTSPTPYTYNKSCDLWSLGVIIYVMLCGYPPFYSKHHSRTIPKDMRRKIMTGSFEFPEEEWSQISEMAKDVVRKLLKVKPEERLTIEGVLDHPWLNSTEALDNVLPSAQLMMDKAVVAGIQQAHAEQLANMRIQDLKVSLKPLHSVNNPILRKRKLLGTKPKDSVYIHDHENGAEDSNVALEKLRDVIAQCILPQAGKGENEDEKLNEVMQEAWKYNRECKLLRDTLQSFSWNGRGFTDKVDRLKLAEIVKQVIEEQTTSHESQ
- ASSAY_CONDITIONS: at 0.1 µM;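 further: reported values are mean PRAK inhibition figures from the GSK PKIS screen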
Catalogue of inhibition values

COMPOUND: CCCN1CCCC(c2ccc(Nc3nc(Nc4cc(F)ccc4C(N)=O)c4cc[nH]c4n3)c(OC)c2)C1 (stereo unspecified)
inhibition (%): 5.81

COMPOUND: ON=C1CCc2cc(-c3nc(C4CCNCC4)[nH]c3-c3ccncc3)ccc21
inhibition (%): -0.32

COMPOUND: FC(F)(F)c1ccc(-c2nn3ncccc3c2-c2ccnc(Nc3ccc4c(c3)OCCO4)n2)cc1
inhibition (%): 2.37

COMPOUND: COC(=O)Nc1nc2cc(Oc3ccc(NC(=O)Nc4cccc(Br)c4)cc3)ccc2[nH]1
inhibition (%): 1.32

COMPOUND: CCS(=O)(=O)c1ccc(OC)c(Nc2nccc(N(C)c3ccc4c(C)n[nH]c4c3)n2)c1
inhibition (%): 1.5

COMPOUND: OCc1ccc(-c2nc(-c3ccccn3)c(-c3ccc4c(c3)OCO4)[nH]2)cc1
inhibition (%): 1.17

COMPOUND: NS(=O)(=O)c1cccc(-c2cc3ccncc3cc2OCc2ccccc2)c1
inhibition (%): 1.74

COMPOUND: NS(=O)(=O)c1cccc(Nc2cc(-c3ccc(F)cc3)n[nH]2)c1
inhibition (%): 1.15

COMPOUND: Cc1ccc(Nc2ccnc(Nc3cccc(C(N)=O)c3)n2)cc1O
inhibition (%): 1.13

COMPOUND: CN(C)c1cc2c(Nc3ccc4c(cnn4Cc4ccccc4)c3)ncnc2cn1
inhibition (%): 0.61

COMPOUND: COc1cc2ncn(-c3cc(OCc4ccccc4S(C)(=O)=O)c(C#N)s3)c2cc1OC
inhibition (%): 0.7

COMPOUND: CN(c1ccc(NC(=O)Nc2ccc(OC(F)(F)F)cc2)cc1)c1ccnc(Nc2cccc(S(N)(=O)=O)c2)n1
inhibition (%): 0.88

COMPOUND: NS(=O)(=O)c1ccc(Nc2cc(-c3cccc(O)c3)n[nH]2)cc1
inhibition (%): 1.59

COMPOUND: COC(=O)c1cncc(/C=C/c2c(C)cc(O)cc2C)c1
inhibition (%): 1.73

COMPOUND: O=S(=O)(CCOCc1ccc(-c2ccc3ncnc(Nc4ccc(OCc5cccc(F)c5)c(Cl)c4)c3c2)o1)c1ccccc1
inhibition (%): 0.61

COMPOUND: Nc1nccc(C#Cc2cncnc2Nc2ccc(OCc3cccc(F)c3)c(Cl)c2)n1
inhibition (%): 0.74

COMPOUND: Oc1cccc(-c2nc(-c3ccccc3)[nH]c2-c2ccncc2)c1
inhibition (%): 1.55

COMPOUND: COC(=O)c1ccc2c(c1)C(=Cc1cc(Br)c(O)c(Br)c1)C(=O)N2
inhibition (%): 0.85

COMPOUND: C[C@@H](Oc1cc(-n2cnc3ccc(OCC4CCN(C)CC4)cc32)sc1C(N)=O)c1ccccc1C(F)(F)F
inhibition (%): -0.8

COMPOUND: Cc1ccc2c(-c3ccnc(Nc4cccc(C(F)(F)F)c4)n3)c(-c3ccccc3)nn2n1
inhibition (%): 1.8

COMPOUND: COc1cc(Nc2nccc(-c3cnn4ncccc34)n2)cc(OC)c1
inhibition (%): 0.14

COMPOUND: CCn1c(-c2nonc2N)nc2ccc(F)cc21
inhibition (%): 2.78

COMPOUND: CC(C)c1ccc(Nc2nccc(-c3cnn4ncccc34)n2)cc1
inhibition (%): 0.53

COMPOUND: O=C1Nc2ccc(-c3cccnc3)cc2C1=Cc1cc(Br)c(O)c(Br)c1
inhibition (%): 0.52

COMPOUND: COc1cc(/C=N/Nc2ncnc3c2cnn3C(C)C)ccc1O
inhibition (%): 0.1

COMPOUND: c1ccc(Nc2ncc(-c3ccccc3)o2)cc1
inhibition (%): 2.01

COMPOUND: CCS(=O)(=O)c1ccc(OC)c(Nc2ncc(-c3cccc(OC)c3)o2)c1
inhibition (%): 0.94

COMPOUND: Cc1ccc(C(=O)NC2CC2)cc1-c1ccc2[nH]ncc2c1
inhibition (%): -1.55

COMPOUND: CN(C)C(=O)O[C@H]1CN[C@H](C#Cc2cc3ncnc(Nc4ccc(OCc5cccc(F)c5)c(Cl)c4)c3s2)C1
inhibition (%): 0.7

COMPOUND: COc1ccc2ncnc(Nc3ccc(OCc4ccccc4)cc3)c2c1
inhibition (%): 0.99

COMPOUND: CN1CCN(C(=O)c2ccc(NC(=O)Nc3ccc(N(C)c4ccnc(Nc5ccc(CS(C)(=O)=O)cc5)n4)cc3)cc2)CC1
inhibition (%): 1.17
